Quick reference: furin enzyme pIC50 of the listed items.
STUDY SYSTEM: Furin (108-574-Tev-Flag-His) enzyme (Homo sapiens, UniProt P09958)
Construct: Furin (108-574-Tev-Flag-His) enzyme was expressed and purified from CHO cells; TEV cleavage site (C); FLAG (C); His (C); made in house; host or cells: CHO cells
Sequence (P09958 108-574): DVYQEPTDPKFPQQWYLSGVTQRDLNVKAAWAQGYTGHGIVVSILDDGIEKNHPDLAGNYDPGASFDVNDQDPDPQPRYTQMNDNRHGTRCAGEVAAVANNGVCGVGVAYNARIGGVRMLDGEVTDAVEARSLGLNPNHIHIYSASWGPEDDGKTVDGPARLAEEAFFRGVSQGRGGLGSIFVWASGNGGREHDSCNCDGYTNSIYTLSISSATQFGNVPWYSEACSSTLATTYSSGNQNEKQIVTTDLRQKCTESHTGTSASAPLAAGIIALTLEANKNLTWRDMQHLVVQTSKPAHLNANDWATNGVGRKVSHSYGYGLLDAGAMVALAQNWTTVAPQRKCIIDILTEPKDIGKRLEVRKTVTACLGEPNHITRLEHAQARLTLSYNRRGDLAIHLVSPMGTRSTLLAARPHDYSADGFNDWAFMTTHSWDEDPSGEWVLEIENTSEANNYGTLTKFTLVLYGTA
ASSAY COMMENT: Furin enzyme assay
Format: biochemical
Structures can show the parent of a compound that is named as a salt.
READOUT KIND: furin enzyme pIC50

CC(=O)NCC1CCN(Cc2cc(Oc3ccc(N4CCN(CCC(=O)O)CC4)nc3)nc(-c3cc(F)cc(Br)c3)c2)CC1: 10.4
CC(CCN1CCN(c2ncc(Oc3cc(CN4CCCC4)cc(-c4cc(Cl)cc(Cl)c4)n3)cn2)CC1)C(=O)O (centres unmarked): 8.9
CC(=O)NCC1CCN(Cc2cc(Oc3ccc(N4CCN(CCC(N)=O)CC4)nc3)nc(-c3cc(Cl)cc(Cl)c3)c2)CC1 [Example 13, hydrochloride]: 9.1
CC(=O)NCC1CCN(Cc2cc(Oc3cnc(N4CCNCC4)c(F)c3)nc(-c3cc(Cl)cc(Cl)c3)c2)CC1: 8.6
CC(CO)N1CCN(c2ncc(Oc3cc(CN4CCC(CC(=O)O)CC4)cc(-c4cc(Cl)cc(Cl)c4)n3)cn2)CC1 (centres unmarked): 9.9
CC(=O)NCC1CCN(Cc2cc(Oc3cnc(N4CCN(CCC(C)(C)C(=O)O)CC4)nc3)nc(-c3cc(Cl)cc(Cl)c3)c2)CC1 [Example 370, hydrochloride]: 9.2
CC(C)(CO)CN1CCN(c2ncc(Oc3cc(CN4CCC(CC(=O)O)CC4)cc(-c4cc(Cl)cc(Cl)c4)n3)cn2)CC1: 8.3
CN1CCN(c2ncc(Oc3cc(CN4CCC(CC(O)C(=O)O)CC4)cc(-c4cc(Cl)cc(Cl)c4)n3)cn2)CC1 (centres unmarked): 9.3
CC(=O)NCC1CCN(Cc2cc(Oc3cnc(N4CCN(CCC(C)C(=O)O)CC4)nc3)nc(-c3cc(Cl)cc(Cl)c3)c2)CC1 (centres unmarked) [Example 369, hydrochloride]: 9.3
Cc1nc(N2CCN(C)CC2)ncc1Oc1cc(CN2CCC(CC(=O)O)CC2)cc(-c2cc(Cl)cc(Cl)c2)n1: 8.3
CC(=O)NCC1CCN(Cc2cc(Oc3ccc(N4CC[N+](C)(C)CC4)nc3)nc(-c3cc(Cl)cc(Cl)c3)c2)CC1.[Cl-]: 9
CNC(=O)NCC1(O)CCN(Cc2cc(Oc3ccc(N4CCNCC4)nc3)nc(-c3cc(Cl)cc(Cl)c3)c2)CC1 [Example 5, hydrochloride]: 9.1
CC(=O)NCC1CCN(Cc2cc(Oc3ccc(N4CCC(N)C(C)(C)C4)nc3)nc(-c3cc(Cl)cc(Cl)c3)c2)CC1 (centres unmarked): 9.3
COC(=O)NCC1CCN(Cc2cc(Oc3cnc(N4CCN(C(C)CCC(=O)O)CC4)nc3)nc(-c3cc(Cl)cc(Cl)c3)c2)CC1 (centres unmarked): 10.2
C[C@H]1CN(c2ncc(Oc3cc(CN4CCC(CC(=O)O)CC4)cc(-c4cc(Cl)cc(Cl)c4)n3)cn2)CCN1: 8.5
CC(=O)CC1CCN(Cc2cc(Oc3cnc(N4CCN(C)CC4)nc3)nc(-c3cc(Cl)cc(Cl)c3)c2)CC1: 8.1
CC(=O)NCC1CCN(Cc2cc(Oc3ccc(N4CCN(CC5(O)CC5)CC4)nc3)nc(-c3cc(Cl)cc(Cl)c3)c2)CC1: 8.8
COC(=O)NC(=O)NCC1CCN(Cc2cc(Oc3cnc(N4CCN(C)CC4)nc3)nc(-c3cc(Cl)cc(Cl)c3)c2)CC1: 8.3
C[C@@H](O)CN1CCN(c2ncc(Oc3cc(CN4CCC(OCC(=O)O)CC4)cc(-c4cc(Cl)cc(Cl)c4)n3)cn2)CC1: 9.2
CC(=O)NCC1CCN(Cc2cc(Oc3ccc(N4CCN(CCN)CC4)nc3)nc(-c3cc(Cl)cc(Cl)c3)c2)CC1: 9
CN1CCN(c2ncc(N(C)c3cc(CN4CCC(CC(=O)O)CC4)cc(-c4cc(Cl)cc(Cl)c4)n3)cn2)CC1 [Example 388, hydrochloride]: 8.1
CN1CCN(c2ncc(Oc3cc(-c4cc(Cl)cc(Cl)c4)cc(CN4CCC(CC(=O)O)CC4)c3F)cn2)CC1: 8.7
COC(=O)NCC1(O)CCN(Cc2cc(Oc3ccc(N4CCNCC4)nc3)nc(-c3cc(Cl)cc(Cl)c3)c2)CC1 [Example 6, hydrochloride]: 8.5
CN1CCN(c2ncc(Oc3nc(-c4cc(Cl)cc(Cl)c4)cc(CN4CCC(CC(=O)O)CC4)c3F)cn2)CC1: 8.7
CNC(=O)OCC1CCN(Cc2cc(Oc3ccc(N4CCN(CCC(=O)O)CC4)nc3)nc(-c3cc(Cl)cc(Cl)c3)c2)CC1 [Example 77, hydrochloride]: 9.1
CC(=O)NCC1CCN(Cc2cc(Oc3cnc(N4CCC(N)CC4)nc3)nc(-c3cc(Cl)cc(Cl)c3)c2)CC1: 9.3
